# System: EBOV minigenome
# TEST_METHOD_NOTES: microbe, parasite or virus in culture
# Assay type: cell-based, Ebola virus
# CONDITION_DETAILS: Zaire ebolavirus, read-out: EBOV EC50
pEC50: −log10 of the molar value.

MOLECULE: CCOC(=O)c1cnc2c(OC)cccc2c1NCCCO
pEC50: 4.16

MOLECULE: COc1cccc2c(Nc3ccc4c(c3)OCCO4)cc(C)nc12
pEC50: 5.27

MOLECULE: CCc1ccccc1Nc1c2ccccc2nc2ccccc12
pEC50: 4.41

MOLECULE: CCOC(=O)c1cnc2ccc(OCC)cc2c1Nc1ccccc1CC
pEC50: 4.12

MOLECULE: Cc1cc(C)c2nc(C)cc(Nc3ccc(OCc4ccccc4)cc3)c2c1
pEC50: 4.12

MOLECULE: CCOC(=O)c1cnc2ccccc2c1NCc1ccco1
pEC50: 4.90

MOLECULE: CC(=O)c1cccc(Nc2cc(C)nc3ccccc23)c1
pEC50: 4.12

MOLECULE: CCOc1ccc2nc(C)cc(Nc3ccc(OC)c(OC)c3)c2c1
pEC50: 4.32

MOLECULE: Cc1cc(C)c2nc(C)cc(Nc3ccc(Cl)c(Cl)c3)c2c1
pEC50: 4.12

MOLECULE: Cc1cc(NNC(=O)OCc2ccccc2)c2ccccc2n1
pEC50: 4.12

MOLECULE: CCOC(=O)c1cnc2c(OC)cccc2c1NC(C)c1ccccc1 (stereo not drawn)
pEC50: 4.53

MOLECULE: CCCOC(=O)c1ccc(Nc2cc(C)nc3ccc(C(=O)OCC)cc23)cc1
pEC50: 5.04

MOLECULE: CCOC(=O)c1cnc2ccc(OCC)cc2c1Nc1ccc(I)cc1
pEC50: 4.12

MOLECULE: c1coc(CNc2c3c(nc4ccccc24)CCC3)c1
pEC50: 4.36

MOLECULE: CCOC(=O)c1ccc2ncc(C(=O)OCC)c(NCCCOC(=O)C(Cl)(Cl)Cl)c2c1
pEC50: 4.81
